B1: ETS1 (parent)
chain: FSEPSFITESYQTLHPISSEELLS

# Variants of: B1
# Assay comment: protein stability index of a GFP-peptide fusion (GPS, HEK-293T) (PSI 1-6); higher = more stable;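 also: lentivirally expressed fusions sorted by FACS into six bins by GFP to DsRed ratio, PSI derived from sequencing read proportions per bin multiplied by bin number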
# Test context: c terminus: a fixed tail appended
// -1 strictly below 2 in protein stability index; 1 otherwise

A selection of reference data follows.
# Sequence data, Class label
records = [
    ("FSEPSFITESYGTLHPISSEELLS", -1),
    ("FSEPSFITESYQTLHPISSYELLS", -1),
    ("FSEPSFITESYQTLHTISSEELLS", -1),
]

Next variant, please.
Q: Hi team, for `FSEPSFIPESYQTLHPISSEELLS` , is the recorded protein stability index at or above 2?
Ans: 1

Reference source: the supplement of paper PMC10567573
